measured.on: Polyunsaturated fatty acid lipoxygenase ALOX15 (Homo sapiens) (UniProt P16050)
Sequence (P16050 whole entry): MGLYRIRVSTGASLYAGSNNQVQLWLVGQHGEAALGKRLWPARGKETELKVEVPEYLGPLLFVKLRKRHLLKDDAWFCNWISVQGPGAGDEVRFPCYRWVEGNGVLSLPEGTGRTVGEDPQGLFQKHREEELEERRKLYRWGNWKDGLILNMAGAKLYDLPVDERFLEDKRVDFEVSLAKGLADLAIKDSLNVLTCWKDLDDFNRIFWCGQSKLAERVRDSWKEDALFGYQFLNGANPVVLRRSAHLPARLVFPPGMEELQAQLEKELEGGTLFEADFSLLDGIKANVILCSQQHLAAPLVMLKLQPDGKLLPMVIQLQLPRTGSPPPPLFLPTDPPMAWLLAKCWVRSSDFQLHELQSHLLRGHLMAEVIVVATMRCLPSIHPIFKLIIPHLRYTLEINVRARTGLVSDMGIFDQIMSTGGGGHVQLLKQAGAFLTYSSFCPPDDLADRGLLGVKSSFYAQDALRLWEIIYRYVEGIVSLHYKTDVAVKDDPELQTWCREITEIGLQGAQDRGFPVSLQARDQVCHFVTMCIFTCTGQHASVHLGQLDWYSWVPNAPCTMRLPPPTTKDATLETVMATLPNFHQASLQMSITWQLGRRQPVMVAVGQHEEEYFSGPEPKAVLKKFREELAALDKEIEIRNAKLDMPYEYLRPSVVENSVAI
assay.protocol: Compound was evaluated for the percent increase in activation concentration of human reticulocyte 15-lipoxygenase (15-HLO)
assay.readout: activation (%)
Please state the figure in %; there is no need to write the unit.

Record excerpt, results attached:
CCC(=O)Oc1ccc(C[C@@H](C)[C@@H](C)Cc2ccc(OC(=O)CC)c(OC(=O)CC)c2)cc1OC(=O)CC 22
CCCC(=O)Oc1ccc(C[C@@H](C)[C@@H](C)Cc2ccc(OC(=O)CCC)c(OC(=O)CCC)c2)cc1OC(=O)CCC 77

Response field activation (Polyunsaturated fatty acid lipoxygenase ALOX15 (Homo sapiens) (UniProt P16050)) for item CCCCCC(=O)Oc1ccc(C[C@@H](C)[C@@H](C)Cc2ccc(OC(=O)CCCCC)c(OC(=O)CCCCC)c2)cc1OC(=O)CCCCC : 70

Let me check: CC(C)C(=O)Oc1ccc(C[C@@H](C)[C@@H](C)Cc2ccc(OC(=O)C(C)C)c(OC(=O)C(C)C)c2)cc1OC(=O)C(C)C , system Polyunsaturated fatty acid lipoxygenase ALOX15 (Homo sapiens) (UniProt P16050), measured activation is 70
